Origin of measurements: patent US8426452B2

test system: C. albicans strain ATCC 96901; test: Growth inhibition of fluconazole-resistant C. albicans strain ATCC 96901 in YPD medium (turbidity, A600); settings: Candida albicans, ATCC96901, read-out: IC50, concentration of drug required to inhibit the growth of yeast cells by 50%
pIC50: −log10 of the molar value.
Mark No for pIC50 values under 5, and Yes for everything at or above.

compound=O=c1c2ccccc2[se]n1-c1ccccc1 labelvalue=Yes
compound=OC(Cn1cncn1)(Cn1cncn1)c1ccc(F)cc1F labelvalue=No
compound="CC(=O)N1CCN(c2ccc(OCC3COC(Cn4ccnc4)(c4ccc(Cl)cc4Cl)O3)cc2)CC1 (centres unmarked)" labelvalue=Yes
compound="O=C1c2ccccc2[Se](=O)N1c1ccccc1 (centres unmarked) [ebselen se-oxide]" labelvalue=Yes
compound="CCC(C)n1ncn(-c2ccc(N3CCN(c4ccc(OCC5COC(Cn6cncn6)(c6ccc(Cl)cc6Cl)O5)cc4)CC3)cc2)c1=O (centres unmarked)" labelvalue=Yes
